Tested on: DLK
Construct: gene MAP3K12
conditions: Compound Concentration (nM):1000;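 further: KINOMEscan scanMAX binding as percent activity remaining versus control; lower means stronger binding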
recorded_endpoint: Percent Control

• CN(C)CCNC(=O)Nc1ccc(N(C)c2ccnc(Nc3ccc(CS(C)(=O)=O)cc3)n2)cc1.Cl [GW830900A] = 67%
• C[C@@H](Oc1cc(-n2cnc3ccc(OC4CCN(C)CC4)cc32)sc1C(N)=O)c1ccccc1Cl [GSK579289A] = 78%
• CN1CCN(C(=O)c2ccc(NC(=O)Nc3ccc(N(C)c4ccnc(Nc5ccc(CS(C)(=O)=O)cc5)n4)cc3)cc2)CC1.Cl [GW830263A] = 30%
• COc1ccc2[nH]c3c4[nH]c5ccc(OC)cc5c4c4c(c3c2c1)C(=O)NC4=O [GW296115X] = 77%
• COc1ccc2cc(-c3c(-c4ccncc4)nc(-c4ccc(S(C)(=O)=O)cc4C)n3C)ccc2c1 [SB-633825] = 84%
• CCc1ccc(Oc2nccc(-c3c(-c4ccc(F)cc4)ncn3C3CCNCC3)n2)cc1 [SB-242719] = 100%
• O=C(Nc1n[nH]c2nc(-c3ccc(O)cc3)c(Br)cc12)C1CC1 [SB-725317] = 100%
• NS(=O)(=O)c1ccc(Nc2ncc(-c3ccccc3)o2)cc1 [GW572399X] = 81%

* * *

Test system: SRPK2
conditions: Compound Concentration (nM):1000
This section presents molecules with their documented Percent Control values.
recorded_endpoint: Percent Control (%)

- COc1cccc(-n2ncc3c(N/N=C/c4ccncc4)ncnc32)c1 [GW784752X]: 100
- COc1cc2ncn(-c3cc(O[C@H](C)c4ccccc4Cl)c(C(N)=O)s3)c2cc1OC [GSK237701A]: 100
- COc1ccc2cc(-c3c(-c4ccncc4)nc(-c4ccc(S(C)(=O)=O)cc4C)n3C)ccc2c1: 76
- NS(=O)(=O)c1ccc(N/N=C2\C(=O)Nc3ccc(C(=O)NCCc4c[nH]cn4)cc32)cc1 [GW300660X]: 100

* * *

Test system: LATS2
conditions: Compound Concentration (nM):1000
The following compounds are listed with their measured Percent Control values.
recorded_endpoint: Percent Control (%)

- CN(C)CCNC(=O)Nc1ccc(N(C)c2ccnc(Nc3ccc(CS(C)(=O)=O)cc3)n2)cc1.Cl [GW830900A]: 88
- C/C(Nc1ccc(S(N)(=O)=O)cc1)=C1/C(=O)Nc2ccccc21 [GW335962X]: 83
- Nc1ncnc2occ(-c3ccc(NC(=O)Nc4cc(C(F)(F)F)ccc4F)cc3)c12 [GW770249X]: 91
- COc1ccc2cc(-c3c(-c4ccncc4)nc(-c4ccc(S(C)(=O)=O)cc4C)n3C)ccc2c1 [SB-633825]: 70

* * *

Test system: WNK3
conditions: Compound Concentration (nM):1000
Classify: class 1 when Percent Control is strictly less than 90%; class 0 when Percent Control is not.

• COc1cc(/C=N/Nc2ncnc3[nH]ncc23)ccc1O [GW578748X] = class 1
• COc1cc(C)c(N(C)C(=O)CN(C)C)cc1Nc1nc(Nc2cccc(F)c2C(N)=O)c2cc[nH]c2n1 [GSK2219385] = class 0
• Cl.O=C(Nc1ccc(Oc2ccc3[nH]c(NC(=O)c4ccco4)nc3c2)cc1)Nc1cc(C(F)(F)F)ccc1F [GW683134A] = class 0
• COc1ccccc1-c1cc(/C=C2\C(=O)Nc3ncc(Br)cc32)cc(Br)c1O [GW442130X] = class 0
• Cl.O=C(O[C@H]1CN[C@H](C#Cc2cc3ncnc(Nc4ccc5c(cnn5Cc5ccccc5)c4)c3s2)C1)N1CCOCC1 [GSK200398A] = class 0
• CC1=C(C(=O)Nc2ccc3[nH]ncc3c2)C(c2ccc3ccccc3c2)CC(=O)N1 (centres unmarked) [GSK270822A] = class 1
• COc1cc(C=NNc2ncnc3c2cnn3-c2ccccc2)ccc1O [GW513184X] = class 0

* * *

System: PRP4
Construct: gene PRPF4B
conditions: Compound Concentration (nM):1000
recorded_endpoint: Percent Control (%)

* COC(=O)Nc1nc2ccc(Oc3ccc(NC(=O)Nc4cc(C(F)(F)F)ccc4F)cc3)cc2s1.Cl [GW693917A] | 100
* NS(=O)(=O)c1ccc(N/N=C2\C(=O)Nc3ccc(C(=O)NCc4ccncc4)cc32)cc1 [GW300657X] | 81
* CCS(=O)(=O)c1ccc(OC)c(Nc2ncc(-c3cccc(OC)c3)o2)c1 [GW580509X] | 82
* O=C1Nc2ccc(C(=O)c3ccco3)cc2C1=Cc1cc(Cl)c(O)c(Cl)c1 [GW406108X] | 71
* COc1ccc2c(-c3ccnc(Nc4cccc(OC(F)(F)F)c4)n3)cnn2n1 [GW810372X] | 100
* COc1cc(C)c(N(C)C(=O)CN(C)C)cc1Nc1nc(Nc2cccc(F)c2C(N)=O)c2cc[nH]c2n1 | 100
* Cl.O=S1CCN(Cc2ccc(-c3ccc4ncnc(Nc5ccc(OCc6ccccc6)c(F)c5)c4c3)o2)CC1 [GW576924A] | 100
* CN1CCN(C(=O)c2ccc(NC(=O)Nc3ccc(N(C)c4ccnc(Nc5ccc(CS(C)(=O)=O)cc5)n4)cc3)cc2)CC1.Cl [GW830263A] | 88

* * *

Tested on: TRKC
Construct: gene NTRK3
conditions: Compound Concentration (nM):1000
recorded_endpoint: Percent Control

• Nc1ncnc2occ(-c3ccc(NC(=O)Nc4cc(C(F)(F)F)ccc4F)cc3)c12 [GW770249X] = 0.1%
• NS(=O)(=O)c1ccc(Nc2ncc(-c3ccccc3)o2)cc1 [GW572399X] = 78%
• NS(=O)(=O)c1ccc(N/N=C2\C(=O)Nc3ccc(C(=O)NCc4ccncc4)cc32)cc1 [GW300657X] = 37%

* * *

Test system: YSK4
Construct: gene MAP3K19
conditions: Compound Concentration (nM):1000
We begin with a simple list: items and their reported Percent Control.
recorded_endpoint: Percent Control (%)

- COC(=O)Nc1nc2ccc(Oc3ccc(NC(=O)Nc4cc(C(F)(F)F)ccc4F)cc3)cc2s1.Cl [GW693917A]: 12
- COc1cc(/C=N/Nc2ncnc3[nH]ncc23)ccc1O [GW578748X]: 3.2
- NS(=O)(=O)c1ccc(N/N=C2\C(=O)Nc3ccc(Cl)cc32)cc1 [GW280670X]: 31
- Cl.O=C(O[C@H]1CN[C@H](C#Cc2cc3ncnc(Nc4ccc5c(cnn5Cc5ccccc5)c4)c3s2)C1)N1CCOCC1 [GSK200398A]: 83

* * *

System: FGFR2
conditions: Compound Concentration (nM):1000
Percent Control strictly under 90% means yes (1); at 90% or over means no (0).

• COc1cc(C)c(N(C)C(=O)CN(C)C)cc1Nc1nc(Nc2cccc(F)c2C(N)=O)c2cc[nH]c2n1 = yes (1)
• CCS(=O)(=O)c1ccc(OC)c(Nc2ncc(-c3cccc(F)c3)o2)c1 [GW621970X] = yes (1)
• CC1=C(C(=O)Nc2ccc3[nH]ncc3c2)C(c2ccc(Cl)c(Cl)c2)CC(=O)N1 (centres unmarked) [GSK299115A] = yes (1)
• COc1cc(C=NNc2ncnc3c2cnn3-c2ccccc2)ccc1O [GW513184X] = no (0)
• CN(C)CCNC(=O)Nc1ccc(N(C)c2ccnc(Nc3ccc(CS(C)(=O)=O)cc3)n2)cc1.Cl [GW830900A] = no (0)
• COc1cc2ncn(-c3cc(O[C@H](C)c4ccccc4Cl)c(C(N)=O)s3)c2cc1OC [GSK237701A] = yes (1)
• O=C(Nc1n[nH]c2nc(-c3ccc(O)cc3)c(Br)cc12)C1CC1 = no (0)
• CCS(=O)(=O)c1ccc(OC)c(Nc2ncc(-c3cccc(OC)c3)o2)c1 [GW580509X] = yes (1)
• Cc1cc(O)cc(C)c1/C=C/c1cncc(C(N)=O)c1 [GW435821X] = no (0)
• Cl.c1ccc(Cc2nc3ccc(Nc4ncnc5ccccc45)cc3[nH]2)cc1 [GR269666A] = no (0)
• COC(=O)Nc1nc2ccc(Oc3ccc(NC(=O)Nc4cc(C(F)(F)F)ccc4F)cc3)cc2s1.Cl [GW693917A] = yes (1)
• CN1CCN(C(=O)c2ccc(NC(=O)Nc3ccc(N(C)c4ccnc(Nc5ccc(CS(C)(=O)=O)cc5)n4)cc3)cc2)CC1.Cl [GW830263A] = no (0)
• COc1ccccc1-c1cc(/C=C2\C(=O)Nc3ncc(Br)cc32)cc(Br)c1O [GW442130X] = no (0)
• NS(=O)(=O)c1ccc(N/N=C2\C(=O)Nc3ccc(C(=O)NCCc4c[nH]cn4)cc32)cc1 [GW300660X] = no (0)
• COc1cc(/C=N/Nc2ncnc3[nH]ncc23)ccc1O [GW578748X] = no (0)
• Cl.O=C(O[C@H]1CN[C@H](C#Cc2cc3ncnc(Nc4ccc5c(cnn5Cc5ccccc5)c4)c3s2)C1)N1CCOCC1 [GSK200398A] = no (0)

* * *

System: EPHA8
conditions: Compound Concentration (nM):1000
Note to self: Percent Control under 90% means T, ties and anything higher get F.

• COc1ccccc1-c1cc(/C=C2\C(=O)Nc3ncc(Br)cc32)cc(Br)c1O [GW442130X] = F
• Cl.O=C(O[C@H]1CN[C@H](C#Cc2cc3ncnc(Nc4ccc5c(cnn5Cc5ccccc5)c4)c3s2)C1)N1CCOCC1 [GSK200398A] = F
• NS(=O)(=O)c1ccc(Nc2ncc(-c3ccccc3)o2)cc1 [GW572399X] = T
• CCS(=O)(=O)c1ccc(OC)c(Nc2ncc(-c3cccc(F)c3)o2)c1 [GW621970X] = F
• CCc1ccc(Oc2nccc(-c3c(-c4ccc(F)cc4)ncn3C3CCNCC3)n2)cc1 [SB-242719] = F
• O=C(Nc1n[nH]c2nc(-c3ccc(O)cc3)c(Br)cc12)C1CC1 [SB-725317] = F
• COc1cc(N2CCN(C(C)C)CC2)ccc1Nc1nc(Nc2ccc(F)cc2C(=O)NC[C@@H](O)CO)c2cc[nH]c2n1 [GSK1392956A] = F
• COc1cc2ncnc(Nc3ccc4c(cnn4Cc4ccccc4)c3)c2cc1OC.Cl [GW282449A] = F
• COc1cc(/C=N/Nc2ncnc3[nH]ncc23)ccc1O [GW578748X] = F
• C[C@@H](Oc1cc(-n2cnc3ccc(OC4CCN(C)CC4)cc32)sc1C(N)=O)c1ccccc1Cl [GSK579289A] = T
• CCn1c(-c2nonc2N)nc2c(C#CC(C)(C)O)nc(OCCNC)cc21.Cl [GSK949675] = F
• COc1ccc2c(-c3ccnc(Nc4cccc(OC(F)(F)F)c4)n3)cnn2n1 [GW810372X] = F
• COc1cccc(-c2c[nH]c3c(N/N=C/c4ccncc4)ncnc23)c1 [GW814408X] = T
• NS(=O)(=O)c1ccc(N/N=C2\C(=O)Nc3ccc(C(=O)NCc4ccncc4)cc32)cc1 [GW300657X] = F
• CCS(=O)(=O)c1ccc(OC)c(Nc2ncc(-c3cccc(OC)c3)o2)c1 [GW580509X] = F
• Cc1cc(O)cc(C)c1/C=C/c1cncc(C(N)=O)c1 [GW435821X] = T
• Cl.c1ccc(Cc2nc3ccc(Nc4ncnc5ccccc45)cc3[nH]2)cc1 [GR269666A] = F
• COc1cccc(-n2ncc3c(N/N=C/c4ccncc4)ncnc32)c1 [GW784752X] = F
• COC(=O)Nc1nc2ccc(Oc3ccc(NC(=O)Nc4cc(C(F)(F)F)ccc4F)cc3)cc2s1.Cl [GW693917A] = T
• COc1ccc2[nH]c3c4[nH]c5ccc(OC)cc5c4c4c(c3c2c1)C(=O)NC4=O [GW296115X] = T
• O=C1Nc2ccc(C(=O)c3ccco3)cc2C1=Cc1cc(Cl)c(O)c(Cl)c1 [GW406108X] = F
• NS(=O)(=O)c1ccc(N/N=C2\C(=O)Nc3ccc(Cl)cc32)cc1 [GW280670X] = F
• NS(=O)(=O)c1ccc(N/N=C2\C(=O)Nc3ccc(C(=O)NCCc4c[nH]cn4)cc32)cc1 [GW300660X] = F
• CC1=C(C(=O)Nc2ccc3[nH]ncc3c2)C(c2ccc3ccccc3c2)CC(=O)N1 (stereo not drawn) [GSK270822A] = F
